Target: USP28Δtip Q315A (Homo sapiens, UniProt Q96RU2, INS458SGSG/Q315A)
Sequence (Q96RU2 with tags, fused parts or gaps, stated change not applied): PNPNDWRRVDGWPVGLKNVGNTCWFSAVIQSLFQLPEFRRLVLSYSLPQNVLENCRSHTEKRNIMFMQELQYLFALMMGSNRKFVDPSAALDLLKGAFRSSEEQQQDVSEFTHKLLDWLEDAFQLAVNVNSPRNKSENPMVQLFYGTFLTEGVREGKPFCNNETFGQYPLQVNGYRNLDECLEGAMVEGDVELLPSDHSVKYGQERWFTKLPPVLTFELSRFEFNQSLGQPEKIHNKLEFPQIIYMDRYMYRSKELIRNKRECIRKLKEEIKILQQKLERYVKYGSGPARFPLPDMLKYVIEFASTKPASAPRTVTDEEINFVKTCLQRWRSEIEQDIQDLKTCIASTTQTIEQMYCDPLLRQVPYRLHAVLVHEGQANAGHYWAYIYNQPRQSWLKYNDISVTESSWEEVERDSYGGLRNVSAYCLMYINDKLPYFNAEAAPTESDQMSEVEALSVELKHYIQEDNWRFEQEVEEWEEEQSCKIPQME
Assay: Ub-Rho110 dose–response assay, USP28Δtip Q315A
Type: biochemical
Conditions: USP28 - Q315A; mean of replicates; read-out: IC50, mean and SD
measured_parameter: IC50 (nM)

[[record]]
compound = "Cc1ccc2c(N)c(C(=O)NC3CCc4cc(N5CC6CCC(C5)N6)ccc4C3)sc2n1 (stereo not shown) [FT206]"
observed_measurement = 360


###

Molecular target: USP28Δtip E366Q (Homo sapiens, UniProt Q96RU2, E366Q/INS458SGSG)
Sequence (Q96RU2 with tags, fused parts or gaps, stated change not applied): as above
Experiment: Ub-Rho110 dose–response assay, USP28Δtip E366Q
Format: biochemical
Settings: USP28 - E366Q; mean of replicates; read-out: IC50, mean and SD
measured_parameter: IC50 (µM)

[[record]]
compound = "Cc1ccc2c(N)c(C(=O)NC3CCc4cc(N5CC6CCC(C5)N6)ccc4C3)sc2n1 (stereo not shown)"
measured_parameter = "IC50"
observed_measurement = 17.2

